- Protocol: Inhibition of reverse transcriptase E138K mutant in HIV-1 3B infected in human MT4 cells assessed as reduction in virus-induced cytopathic effect incubated for 5 days by MTT assay
Observation type: EC50 (µM)
Write it as a number; the unit µM goes unstated.

See these solved cases before continuing.
> print(dat)
                                   molecule  numeric.readout
1  Cc1cc(-c2ccc(C#N)cc2)cc(C)c1C(O)c1ccnc(Nc2ccc(C#N)cc2)n1 (configuration not stated)            0.016
2  N#Cc1ccc(Nc2nccc(C(O)c3ccc(-c4ccc(C#N)cc4)cc3F)n2)cc1 (configuration not stated)            0.029
3  N#Cc1ccc(Nc2nccc([C@H](O)c3ccc(-c4ccc(C#N)cc4)cc3Cl)n2)cc1            0.206

Task: So what's the measured EC50 for this one? N#Cc1ccc(Nc2nccc([C@H](O)c3ccc(-c4ccc(C#N)cc4)cc3C(F)(F)F)n2)cc1
Output: 0.933

Task: Param item = N#Cc1ccc(Nc2nccc([C@H](O)c3c(F)cc(-c4ccc(C#N)cc4)cc3F)n2)cc1 ; retrieve measured EC50.
Output: 0.055

Task: Requested read-out: EC50. Entry: N#Cc1ccc(Nc2nccc([C@@H](O)c3c(F)cc(-c4ccc(C#N)cc4)cc3F)n2)cc1
Output: 0.0084

Task: Entry COc1cc(-c2ccc(C#N)cc2)ccc1C(O)c1ccnc(Nc2ccc(C#N)cc2)n1 (configuration not stated) : reported EC50 = ?
Output: 0.0074

* * *

- Protocol: Inhibition of reverse transcriptase E138K mutant in HIV-1 3B infected in human MT4 cells assessed as reduction in virus-induced cytopathic effect incubated for 5 days by MTT assay
Collected EC50 values appear next to each entry.
Numeric only. Scale: nM

> print(dat)
                                   molecule  numeric.readout
1  N#Cc1ccc(Nc2nccc([C@@H](O)c3ccc(-c4ccc(C#N)cc4)cc3C(F)(F)F)n2)cc1              9.1

Task: Entry Cc1cc(-c2ccc(C#N)cc2)cc(C)c1[C@H](O)c1ccnc(Nc2ccc(C#N)cc2)n1 has what EC50?
Output: 7.2

Task: Using the record for N#Cc1ccc(Nc2nccc(C(O)c3c(F)cc(-c4ccc(C#N)cc4)cc3F)n2)cc1 (stereo not given) , report its EC50.
Output: 25

Task: Name the reported EC50 value associated with the molecule COc1cc(-c2ccc(C#N)cc2)ccc1[C@@H](O)c1ccnc(Nc2ccc(C#N)cc2)n1
Output: 196

Task: Value lookup for EC50; key = N#Cc1ccc(Nc2nccc(C(O)c3ccc(-c4ccc(C#N)cc4)cc3Cl)n2)cc1 (stereo not given)
Output: 7.3

Task: Value lookup for EC50; key = Cc1cc(-c2ccc(C#N)cc2)cc(C)c1[C@@H](O)c1ccnc(Nc2ccc(C#N)cc2)n1
Output: 19

Task: What does the data say about its EC50? Entry: N#Cc1ccc(Nc2nccc([C@@H](O)c3ccc(-c4ccc(C#N)cc4)cc3F)n2)cc1
Output: 9.3

Task: Quick one: EC50 of N#Cc1ccc(Nc2nccc([C@H](O)c3ccc(-c4ccc(C#N)cc4)cc3F)n2)cc1 ?
Output: 164

Task: Please give the measured EC50 for this molecule: N#Cc1ccc(Nc2nccc([C@@H](O)c3ccc(-c4ccc(C#N)cc4)cc3Cl)n2)cc1
Output: 3

Task: Please report the recorded EC50 for N#Cc1ccc(Nc2nccc(C(O)c3ccc(-c4ccc(C#N)cc4)cc3C(F)(F)F)n2)cc1 (stereo not given) .
Output: 26
